- Test system: LOX IMVI melanoma
- RUN_DESCRIPTION: NCI tumour cell line growth inhibition, 48 h
# TGI values compiled below

Recorded TGI, per entry:
CC(C)(C)c1ccc(OCCOCCOc2ccc(C(C)(C)C)cc2S(N)(=O)=O)c(S(N)(=O)=O)c1	> 100 µM
CC1(C)CC2=NO[Se]3=C2C(=NO3)C1	9.39 µM
CC[C@]12C=CCN3CC[C@@]4(c5ccc(OC)cc5N(C)[C@H]4[C@@](O)(C(=O)OC)[C@@H]1OC(=O)CCCN1CCN(CCCC(=O)O[C@@H]4[C@]5(CC)C=CCN6CC[C@@]7(c8ccc(OC)cc8N(C)[C@H]7[C@@]4(O)C(=O)OC)[C@@H]65)CC1)[C@@H]32	1.5 µM
COC(=O)N/N=C(\C)c1sc(-c2nc(C)c(/C(C)=N/NC(=O)OC)s2)nc1C	> 100 µM

Q: Given the compound `N/C(=N\N=C\c1nc2ccccc2o1)c1cnccn1` , what is its reported TGI?
Result: > 100 µM

Q: Try this compound too: `Nc1ccc2c(=S)c3ccccc3[nH]c2c1`
Result: > 100 µM

Q: Now the compound ON1CCc2c([nH]c3ccccc23)C1c1ccc(Cl)cc1 (configuration not stated)
Result: 37.4 µM

Q: Query `CN(/N=C/c1ccccn1)C1=NCCN1` next
Result: > 100 µM

Q: // query: `O=C(/C=C(\[O-])c1ccccc1)CCCCCCC(=O)/C=C(\[O-])c1ccccc1.O=C(/C=C(\[O-])c1ccccc1)CCCCCCC(=O)/C=C(\[O-])c1ccccc1.O=C(/C=C(\[O-])c1ccccc1)CCCCCCC(=O)/C=C(\[O-])c1ccccc1.[Y+3].[Y+3]`
Result: > 50 µM

---

Catalogue of compounds with associated TGI
- Test system: NCI/ADR-RES ovarian
- RUN_DESCRIPTION: NCI tumour cell line growth inhibition, 48 h

O=C(Nc1ccc(Cl)cc1Cl)C1C(=O)OC2(CCCCC2)OC1=O	26.4 µM

Q: Find TGI (NCI/ADR-RES ovarian) for the entry `O=[N+]([O-])c1ccc2c3c1[C@@H]1O[C@@H]1c1cccc(c1-3)[C@@H]1O[C@H]21`
Result: > 38.5 µM

Q: Consider next the compound `O=c1c2ccccc2nc2n1CCc1c-2[nH]c2ccccc12` in the same way.
Result: 61 µM

---

- Tested on: HL-60(TB) leukemia
- RUN_DESCRIPTION: NCI tumour cell line growth inhibition, 48 h
QUANTITY_MEASURED: TGI (µM)
// note: answer is a bare numeric in µM

CN(c1ccccc1)c1c2ccccc2nc2[nH]c3ccccc3c12	6.25
O=C(Nc1ccc(Cl)cc1Cl)C1C(=O)OC2(CCCCC2)OC1=O	29.9
Cc1cccc(Oc2ccc(Nc3ncnc4ccc(NC(=O)CN(C)C)cc34)cc2Cl)c1	4.72

Q: Name the recorded TGI for `COc1ccc(Cn2c(Br)c3c(c2-c2cc(OC)c(OC)c(OC)c2)CCc2sc(N)nc2-3)cc1` .
Result: 3.67

Q: Queued: `O=[N+]([O-])c1ccc2c3c1[C@@H]1O[C@@H]1c1cccc(c1-3)[C@@H]1O[C@H]21`
Result: 7.58

Q: And what about the compound `COc1ccccc1CNCCCN1C(=O)c2ccc3c4c(ccc(c24)C1=O)C(=O)N(CCCNCc1ccccc1OC)C3=O` ?
Result: 0.453
